# System: ATR-driven phosphorylation of Chk1 kinase at Serine 345 in HT-29 colorectal adenocarcinoma cells
# Test protocol: pCHK1 cellular assay (CHK1 p-Ser345 AlphaScreen SureFire)
# Format: cell-based
# Recorded conditions: Homo sapiens, HT-29, HT-29 cells, 4-nitroquinoline N-oxide 12 uM; read-out: Cell IC50 (pCHK1 IC50 values)
For each of the compounds below, state its IC50.
One number for each entry, in nM.

Would you please look over these solved cases?
> print(dat)
                                   compound  measured.value
1  COC(=O)[C@H]1CCCN(c2ncnc3c2CN(c2cc(Cl)nc4[nH]ccc24)[C@H](C)C3)C1              57
2  C[C@@H]1Cc2ncnc(N3C[C@H]4CC[C@@H](C3)[C@@H]4NS(C)(=O)=O)c2CN1c1cc(Cl)nc2[nH]ccc12              83
3  CS(=O)(=O)c1ccc(-c2ncnc3c2CN(c2ccnc4[nH]ccc24)CC3)cc1 [Example 1, bis(trifluoroacetate)]            1880

Continue with the next compound.
# return recorded IC50 for input C[C@@H]1Cc2ncnc(N3CCCN(S(C)(=O)=O)CC3)c2CN1c1ccnc2[nH]ccc12 162

====

# Tested on: ATR-driven phosphorylation of Chk1 kinase at Serine 345 in HT-29 colorectal adenocarcinoma cells
# Test protocol: pCHK1 cellular assay (CHK1 p-Ser345 AlphaScreen SureFire)
# Assay type: cell-based
# Recorded conditions: Homo sapiens, HT-29, HT-29 cells, 4-nitroquinoline N-oxide 12 uM; read-out: Cell IC50 (pCHK1 IC50 values)
pIC50: −log10 of the molar value.
Decision: pIC50 >= 7 yields yes (1), all other cases yield no (0).

Decide: is the reported value of pIC50 for C[C@@H]1Cc2ncnc(N3CCC(S(C)(=O)=O)C3)c2CN1c1cc(Cl)nc2[nH]ccc12 (stereo partly drawn) equal to or greater than 7? yes (1)

====

# Test system: ATR-driven phosphorylation of Chk1 kinase at Serine 345 in HT-29 colorectal adenocarcinoma cells
# Test protocol: pCHK1 cellular assay (CHK1 p-Ser345 AlphaScreen SureFire)
# Type: cell-based
# Recorded conditions: HT-29 cells, 4-nitroquinoline N-oxide 12 uM; read-out: Cell IC50 (pCHK1 IC50 values)
Measurement label: pIC50
Answers are plain numbers, as −log10 of the molar value.

> print(dat)
                                   compound  measured.value
1  C[C@@H]1Cc2ncnc(C3C[C@H]4CC[C@@H](C3)N4S(C)(=O)=O)c2CN1c1cc(Cl)nc2[nH]ccc12 (single isomer, unassigned) [Example 11a]            7.55
2  C[C@@H]1Cc2ncnc([C@H]3CCN(S(C)(=O)=O)C(C)(C)C3)c2CN1c1ccnc2[nH]ccc12 (single isomer, unassigned) [Example 48b]            7.10
3  C[C@@H]1Cc2ncnc(C3C[C@H]4CC[C@@H](C3)N4S(C)(=O)=O)c2CN1c1cc(Cl)nc2[nH]ccc12 (single isomer, unassigned) [Example 11b]            7.54
4  C[C@@H]1Cc2ncnc([C@H]3CCN(S(C)(=O)=O)C3)c2CN1c1ccnc2[nH]ccc12 [Example 57b]            6.40
5  CS(=O)(=O)N1CCC(c2ncnc3c2CN(c2ccnc4[nH]ccc24)[C@H](C(F)F)C3)CC1 [Example 53b]            6.31

// for each compound in input: emit pIC50
1. C[C@@H]1Cc2ncnc([C@H]3CCCN(S(C)(=O)=O)C3)c2CN1c1cc(Cl)nc2[nH]ccc12 (single isomer, unassigned) [Example 51b]
2. C[C@@H]1Cc2ncnc([C@@H]3CCCN(S(C)(=O)=O)C3)c2CN1c1cc(Cl)nc2[nH]ccc12 (single isomer, unassigned) [Example 51a]

7.32
7.96
